Target: Solute carrier organic anion transporter family member 1B1 (Homo sapiens, UniProt Q9Y6L6)
Conditions: chinese hamster, cho, 10 µM
Provide the reported residual activity of each item.
Provide the reading as a plain figure in %.

Give Solute carrier organic anion transporter family member 1B1 (Homo sapiens, UniProt Q9Y6L6) residual activity for Cl.Cl.Fc1ccc(C(c2ccc(F)cc2)N2CCN(C/C=C/c3ccccc3)CC2)cc1 [FLUNARIZINE HYDROCHLORIDE]
117.4

Give Solute carrier organic anion transporter family member 1B1 (Homo sapiens, UniProt Q9Y6L6) residual activity for C=C1CCC(C2CC(=O)OC2=O)C(=O)CCC2C1CC2(C)C (centres undefined)
29.82

Give Solute carrier organic anion transporter family member 1B1 (Homo sapiens, UniProt Q9Y6L6) residual activity for `O=C(O)c1ccc(S(=O)(=O)N(Cl)Cl)cc1`
97.95

Give Solute carrier organic anion transporter family member 1B1 (Homo sapiens, UniProt Q9Y6L6) residual activity for `CC(=O)Oc1ccc2c(c1C(C)C)CC[C@H]1C(C)(C)CCC[C@]21C`
70.34

Give Solute carrier organic anion transporter family member 1B1 (Homo sapiens, UniProt Q9Y6L6) residual activity for `COc1cc2occc2c2oc(=O)ccc12`
127.3

Give Solute carrier organic anion transporter family member 1B1 (Homo sapiens, UniProt Q9Y6L6) residual activity for CC(=O)/C=C\[C@@H]1[C@@]2(C)CCCC(C)(C)C2CC[C@@]1(C)O (some centres undefined) [8-HYDROXY-15,16-BISNOR-11-LABDEN-13-ONE]
71.14

Give Solute carrier organic anion transporter family member 1B1 (Homo sapiens, UniProt Q9Y6L6) residual activity for `CC(C)=CCC[C@](C)(O)[C@@H]1CC=C(C)CC1`
83.39

Give Solute carrier organic anion transporter family member 1B1 (Homo sapiens, UniProt Q9Y6L6) residual activity for `COc1cc2c(cc1-c1coc3c4c(c(OC)cc3c1=O)OC(C)(C)C=C4)OCO2`
105.6

Give Solute carrier organic anion transporter family member 1B1 (Homo sapiens, UniProt Q9Y6L6) residual activity for `Cc1cc(C2CCCCC2)n(O)c(=O)c1.NCCO`
129.1

* * *

Target: Solute carrier organic anion transporter family member 1B1 (Homo sapiens)
Sequence (Q9Y6L6 whole entry): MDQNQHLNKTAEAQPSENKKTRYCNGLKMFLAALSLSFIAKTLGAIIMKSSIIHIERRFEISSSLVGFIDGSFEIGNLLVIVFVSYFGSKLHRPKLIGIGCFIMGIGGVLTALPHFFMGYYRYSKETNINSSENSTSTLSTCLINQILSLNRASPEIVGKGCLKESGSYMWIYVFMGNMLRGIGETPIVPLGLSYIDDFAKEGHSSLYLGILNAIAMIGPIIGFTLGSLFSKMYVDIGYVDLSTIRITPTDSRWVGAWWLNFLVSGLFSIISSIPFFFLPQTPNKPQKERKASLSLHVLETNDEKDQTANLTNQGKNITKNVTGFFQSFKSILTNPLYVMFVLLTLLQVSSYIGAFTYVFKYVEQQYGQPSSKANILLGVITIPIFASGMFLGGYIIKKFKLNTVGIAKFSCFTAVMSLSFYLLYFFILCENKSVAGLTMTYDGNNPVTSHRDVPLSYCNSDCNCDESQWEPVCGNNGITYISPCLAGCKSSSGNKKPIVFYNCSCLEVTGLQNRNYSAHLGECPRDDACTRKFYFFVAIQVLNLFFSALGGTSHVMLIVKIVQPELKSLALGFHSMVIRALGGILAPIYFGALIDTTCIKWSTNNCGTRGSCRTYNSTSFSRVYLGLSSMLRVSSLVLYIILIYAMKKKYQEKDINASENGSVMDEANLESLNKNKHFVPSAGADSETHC
Conditions: chinese hamster, cho, 10 µM
Residues, ends and D or L forms follow the SMILES beside them. *: point of attachment. For = O=C*
measured_attribute: residual activity

Requested read-out: residual activity. Entry: COC(=O)C1=C(C)NC(C)=C(C(=O)OCCN(C)Cc2ccccc2)C1c1cccc([N+](=O)[O-])c1.Cl (centres undefined) [NICARDIPINE HYDROCHLORIDE]
56.95%

Requested read-out: residual activity. Entry: CC(=O)/N=c1/sc(S(N)(=O)=O)nn1C [METHAZOLAMIDE]
101.3%

Requested read-out: residual activity. Entry: `CC[C@@]1(O)C(=O)OCc2c1cc1n(c2=O)Cc2cc3ccccc3nc2-1`
74.81%

Requested read-out: residual activity. Entry: CSCC[C@H](NC=O)C(=O)N[C@@H](Cc1ccccc1)C(=O)O (For-Met-Phe-OH)
38.77%

* * *

Target: Solute carrier organic anion transporter family member 1B1 (Homo sapiens, UniProt Q9Y6L6)
Conditions: chinese hamster, cho, 10 µM
measured_attribute: residual activity
Your reply should be a number followed by the unit it is expressed in.

Give Solute carrier organic anion transporter family member 1B1 (Homo sapiens, UniProt Q9Y6L6) residual activity for `N[C@H](Cc1ccccc1)C(=O)O`
73.08%

Give Solute carrier organic anion transporter family member 1B1 (Homo sapiens, UniProt Q9Y6L6) residual activity for CC(C)/C(O)=C1/C(=O)O[C@@H](c2ccoc2)[C@]2(C)C(O)[C@@H](O)[C@@]34OC5(C)OC67CC(C)(C(O)[C@]6(O)[C@@H](O)[C@]3(O5)C12)[C@H](CC(=O)O)[C@]74C (stereo partly specified) [HYDROLYSIS PRODUCT OF BUSSEIN]
52.29%

Give Solute carrier organic anion transporter family member 1B1 (Homo sapiens, UniProt Q9Y6L6) residual activity for CC(=O)Oc1cc(-c2coc3cc(OC(C)=O)c(OC(C)=O)c(OC(C)=O)c3c2=O)cc(OC(C)=O)c1OC(C)=O [IRIGINOL HEXAACEATATE]
102.1%

Give Solute carrier organic anion transporter family member 1B1 (Homo sapiens, UniProt Q9Y6L6) residual activity for `Nc1ccc(S(=O)(=O)Nc2nccs2)cc1`
89.12%

Give Solute carrier organic anion transporter family member 1B1 (Homo sapiens, UniProt Q9Y6L6) residual activity for `CC1(C)CC[C@]2(C(=O)O)CC[C@]3(C)C(=CC[C@@H]4[C@@]5(C)CC[C@H](O)C(C)(C)[C@@H]5CC[C@]43C)[C@@H]2C1`
83.88%

Give Solute carrier organic anion transporter family member 1B1 (Homo sapiens, UniProt Q9Y6L6) residual activity for `CC[C@H]1OC(=O)[C@H](C)C(=O)[C@H](C)[C@@H](O[C@@H]2O[C@H](C)C[C@H](N(C)C)[C@H]2O)[C@](C)(OC)C[C@@H](C)C(=O)[C@H](C)[C@H]2N(CCCCn3cnc(-c4cccnc4)c3)C(=O)O[C@]12C`
62.01%

* * *

Biological target: Solute carrier organic anion transporter family member 1B3 (Homo sapiens)
Sequence (Q9NPD5 whole entry): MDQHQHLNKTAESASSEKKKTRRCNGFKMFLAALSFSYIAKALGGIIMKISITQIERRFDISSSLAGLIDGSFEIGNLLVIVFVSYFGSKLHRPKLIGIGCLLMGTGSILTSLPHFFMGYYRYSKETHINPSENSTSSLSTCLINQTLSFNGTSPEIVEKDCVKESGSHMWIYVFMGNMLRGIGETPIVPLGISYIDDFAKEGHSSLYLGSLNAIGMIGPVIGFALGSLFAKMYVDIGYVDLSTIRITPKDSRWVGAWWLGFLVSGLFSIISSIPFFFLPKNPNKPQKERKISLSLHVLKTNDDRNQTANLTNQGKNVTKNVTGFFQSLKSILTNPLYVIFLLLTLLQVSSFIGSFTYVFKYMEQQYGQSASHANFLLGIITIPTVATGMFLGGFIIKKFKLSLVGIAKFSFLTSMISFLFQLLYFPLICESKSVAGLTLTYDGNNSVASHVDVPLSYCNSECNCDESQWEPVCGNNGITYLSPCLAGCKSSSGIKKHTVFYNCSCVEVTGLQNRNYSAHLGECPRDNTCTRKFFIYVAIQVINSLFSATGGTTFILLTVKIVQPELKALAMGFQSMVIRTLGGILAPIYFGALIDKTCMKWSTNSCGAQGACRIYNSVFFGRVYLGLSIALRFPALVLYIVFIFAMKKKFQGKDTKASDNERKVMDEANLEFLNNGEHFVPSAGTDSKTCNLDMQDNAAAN
Conditions: chinese hamster, cho, 10 µM
measured_attribute: residual activity (%)
Provide the reading as a plain figure in %.

Requested read-out: residual activity. Entry: NC(=O)c1ccc(N)nc1 [6-AMINONICOTINAMIDE]
108.6

Requested read-out: residual activity. Entry: `COc1ccc2c(c1)OC/C(=C\c1ccc(OC)c(O)c1)C2=O`
136.1

Requested read-out: residual activity. Entry: CC1CCc2cc(F)cc3c(=O)c(C(=O)O)cn1c23 (stereo not given)
107

Requested read-out: residual activity. Entry: `COc1cc2occc2c2oc(=O)ccc12`
113.9

Requested read-out: residual activity. Entry: `Oc1ccc(Cl)cc1`
100.4

Requested read-out: residual activity. Entry: `CC(=O)[C@H]1CC[C@H]2[C@@H]3C[C@H](C)C4=CC(=O)CC[C@]4(C)[C@H]3[C@@H](O)C[C@]12C`
90.89

Requested read-out: residual activity. Entry: `Cc1ccc(C(C)C)cc2c(C)ccc1-2`
50.28

Requested read-out: residual activity. Entry: `N[C@@H](C(=O)O)[C@@H](O)[C@H](O)[C@H](O)CO`
25.61

Requested read-out: residual activity. Entry: O=C(O)CCCCC1CCSS1 (stereo not given)
103.3

Requested read-out: residual activity. Entry: `Nc1ccn([C@@H]2O[C@H](CO)[C@@H](O)[C@H]2O)c(=O)n1`
114

Hello, the source for this data is ChEMBL document CHEMBL3039007, in case you need it.
